This section presents molecules with their documented LD50 values.
experimental_protocol: Acute oral toxicity in mice (LD50, method of Miller and Tainter)
condition_context: in vivo; mouse about 20 g, oral administration; read-out: DL50 voie orale
readout_type: LD50

COc1ccc(-c2nc(=O)n(CCO)nc2-c2ccc(OC)cc2)cc1 ... > 1000 mg/kg
C=COCCn1nc(-c2ccc(OC)cc2)c(-c2ccc(OC)cc2)nc1=O ... > 1000 mg/kg
CN(C)c1ccc(-c2nc(=O)n(CC(O)CO)nc2-c2ccc(N(C)C)cc2)cc1 (stereo not drawn) ... > 1000 mg/kg
COc1ccc(-c2nc(=O)n(C(C)CN(C)C)nc2-c2ccc(OC)cc2)cc1 (stereo not drawn) ... 750 mg/kg
C=CCNCCCn1nc(-c2ccc(OC)cc2)c(-c2ccc(OC)cc2)nc1=O ... 750 mg/kg
COc1ccc(-c2nc(=O)n(CCN3CCOCC3)nc2-c2ccc(OC)cc2)cc1 ... > 1000 mg/kg
CN(C)c1ccc(-c2nc(=O)n(CCCCl)nc2-c2ccc(N(C)C)cc2)cc1 ... > 1000 mg/kg
COc1ccc(-c2nc(=O)n(CCCCl)nc2-c2ccc(OC)cc2)cc1 ... ≥ 1000 mg/kg
CN(C)c1ccc(-c2nc(=O)n(CCO)nc2-c2ccc(N(C)C)cc2)cc1 ... > 1000 mg/kg
